Values compiled from patent US20160362487A1.

Molecular target: T1, human IL-33 (R&D Systems, #3625-IL-010/CF) (human, UniProt O95760 112-270)
T1 sequence (looked up): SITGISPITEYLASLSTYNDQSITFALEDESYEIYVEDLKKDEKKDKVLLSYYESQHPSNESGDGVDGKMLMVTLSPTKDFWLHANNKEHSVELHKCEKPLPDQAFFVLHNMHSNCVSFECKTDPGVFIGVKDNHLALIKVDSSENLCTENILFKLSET
Experiment: cell-based or functional assay
Documented IC50, blocking of IFN-γ release from human PBMC induced by 260 pM hIL-33, donor #603487 across a set of binders
Just the number please, in M, no unit attached.

Recorded results for 4 binders are shown here.
binder: H4H9671P (antibody, human IgG4, V domains shown, Human IgG4 Fc (H4H)) VH: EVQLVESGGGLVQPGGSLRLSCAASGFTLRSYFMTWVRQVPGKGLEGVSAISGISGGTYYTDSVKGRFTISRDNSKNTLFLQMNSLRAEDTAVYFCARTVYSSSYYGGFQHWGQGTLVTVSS VL: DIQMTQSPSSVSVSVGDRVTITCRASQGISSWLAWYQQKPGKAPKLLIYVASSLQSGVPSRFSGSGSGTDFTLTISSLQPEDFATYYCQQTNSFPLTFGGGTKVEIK
reported measurement: 8.62e-09
//
binder: H4H9660P (antibody, human IgG4, V domains shown, Human IgG4 Fc (H4H)) VH: EVQLVESGGGLVQPGGSLRLSCAASGITLSSYGMSWVRQAPGKGLEWVASIFGSGGGPYYADSVKGRFTMSRDNSKNTLYLQMNSLRAEDTAVYYCAKDRYSGSYYGGFDYWGRGTLVTVSS VL: DIQMTQSPSSVSASVGDRVTITCRASQGITSWLAWYQQKPGKAPTLLIYAASSLQTGVPSRFSGSGSGTDFTLTISSLQPEHFATYYCQQANSFPPTFGGGTKVEIK
reported measurement: 2.91e-09
//
binder: H4H9675P (antibody, human IgG4, V domains shown, Human IgG4 Fc (H4H)) VH: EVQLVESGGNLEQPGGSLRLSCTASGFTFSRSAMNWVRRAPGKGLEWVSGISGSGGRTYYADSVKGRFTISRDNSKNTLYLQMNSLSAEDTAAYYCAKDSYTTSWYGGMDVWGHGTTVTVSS VL: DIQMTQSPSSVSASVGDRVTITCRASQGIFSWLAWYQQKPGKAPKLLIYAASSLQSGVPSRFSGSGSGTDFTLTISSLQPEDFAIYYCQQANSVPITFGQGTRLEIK
reported measurement: 4.71e-10
//
binder: H4H9659P (antibody, human IgG4, V domains shown, Human IgG4 Fc (H4H)) VH: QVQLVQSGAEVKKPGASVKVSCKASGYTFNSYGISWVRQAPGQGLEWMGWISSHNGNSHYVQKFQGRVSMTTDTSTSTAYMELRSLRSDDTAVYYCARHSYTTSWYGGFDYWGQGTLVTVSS VL: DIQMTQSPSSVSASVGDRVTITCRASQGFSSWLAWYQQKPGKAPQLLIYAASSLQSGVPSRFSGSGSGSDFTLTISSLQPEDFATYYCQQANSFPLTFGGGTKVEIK
reported measurement: 2.71e-09

# ---- query binder ----
What does the data say about its IC50, blocking of IFN-γ release from human PBMC induced by 260 pM hIL-33, donor #603487? Entry: H4H9667P (antibody, human IgG4, V domains shown, Human IgG4 Fc (H4H)) VH: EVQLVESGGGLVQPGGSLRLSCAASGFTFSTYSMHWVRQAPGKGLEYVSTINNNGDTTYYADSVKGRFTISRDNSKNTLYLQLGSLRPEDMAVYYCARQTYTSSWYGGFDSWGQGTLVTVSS VL: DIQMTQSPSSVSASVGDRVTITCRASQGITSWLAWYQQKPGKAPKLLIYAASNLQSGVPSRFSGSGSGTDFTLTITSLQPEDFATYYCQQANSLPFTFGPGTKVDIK
1.88e-08
